Would you mind telling me the reported ELISA signal of each entry?
- measurement.target: T1, Recombinant Human DLL4 (human, UniProt Q9NR61 27-524)
- T1 construct: Bought recombinant human DLL4 (R&D Systems 1506-D4/CF); also called delta-like protein 4; rHuman DLL4
- assay.method.text: ELISA on plate-coated DLL4, Fab at 20 nM (3-fold serial dilution)
Could you respond with only the numeric value?

[ask] Which ELISA signal value is on record for Fab VH1-46_IGHD6-6*01_IGHJ1*01 S102A/S103P/S104F/H111F I51A/N52L/S54T/G56H & L6_IGKJ1*01 S28N/S30D/S31H (Fab, V domains shown, Fab expressed in E. coli: VH joined to CH1 from Plasmid A (His6 and Flag tags), VL joined to kappa CL from Plasmid C; also called H:APFF ALTH & L:NDH) VH: QVQLVQSGAEVKKPGASVKVSCKASGYTFTSYYMHWVRQAPGQGLEWMGIALPTGHSTSYAQKFQGRVTMTRDTSTSTVYMELSSLRSEDTAVYYCAREEYAPFSAEYFQFWGQGTLVTVSS VL: EIVLTQSPATLSLSPGERATLSCRASQNVDHYLAWYQQKPGQAPRLLIYDASNRATGIPARFSGSGSGTDFTLTISSLEPEDFAVYYCQQRSNWPPWTFGQGTKVEIKR ?
[reply] 0.391

[ask] Which ELISA signal value is on record for Fab VH1-46_IGHD6-6*01_IGHJ1*01 S102A/S103P/S104F/H111F N52L/S54T/G56H & L6_IGKJ1*01 S28N/S30D/S31H (Fab, V domains shown, Fab expressed in E. coli: VH joined to CH1 from Plasmid A (His6 and Flag tags), VL joined to kappa CL from Plasmid C; also called H:APFF LTH & L:NDH) VH: QVQLVQSGAEVKKPGASVKVSCKASGYTFTSYYMHWVRQAPGQGLEWMGIILPTGHSTSYAQKFQGRVTMTRDTSTSTVYMELSSLRSEDTAVYYCAREEYAPFSAEYFQFWGQGTLVTVSS VL: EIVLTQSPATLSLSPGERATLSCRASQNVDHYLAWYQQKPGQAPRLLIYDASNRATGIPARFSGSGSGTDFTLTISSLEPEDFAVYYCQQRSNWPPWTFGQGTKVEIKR ?
[reply] 0.863

[ask] Which ELISA signal value is on record for Fab VH1-46_IGHD6-6*01_IGHJ1*01 S102A/S103P/S104F/H111F N52L/S54T/G56H & L6_IGKJ1*01 S28N/S30D/S31H S52L/A55G (Fab, V domains shown, Fab expressed in E. coli: VH joined to CH1 from Plasmid A (His6 and Flag tags), VL joined to kappa CL from Plasmid C; also called H:APFF LTH & L:NDH LG) VH: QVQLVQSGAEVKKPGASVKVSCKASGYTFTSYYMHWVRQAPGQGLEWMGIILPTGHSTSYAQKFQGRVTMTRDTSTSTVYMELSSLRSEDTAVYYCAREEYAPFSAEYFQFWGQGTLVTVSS VL: EIVLTQSPATLSLSPGERATLSCRASQNVDHYLAWYQQKPGQAPRLLIYDALNRGTGIPARFSGSGSGTDFTLTISSLEPEDFAVYYCQQRSNWPPWTFGQGTKVEIKR ?
[reply] 1.01

The reported measurements were obtained from patent US20120316071A1.
